All figures here come from PubChem BioAssay (NCI).

# Tested on: UACC-257 melanoma
# procedure_text: NCI-60 one-dose screen, 48 h
# test_conditions: 10 µM
# Experimental: Cells are grown in 96 well plates and exposed to the test compound for 48 hours. Compounds are tested at a single concentration, which is 10^-5 M for most compounds. The reported endpoint is percent growth (GI% or GIPRCNT), where numbers from 0 - 100% represent growth inhibition, and numbers from -100% - 0 represent cell death. For example, a value of 40 represents 60% growth inhibition. A value of 0 means no net growth occurred over the course of the experiment. […]
This is part of a sample that, as a whole, favours compounds with a hit. Of some 83,000 tested, about 20% had one in any assay. Active and inactive are the calls of the source. The calls were made as follows: active = growth percent below 10; inactive = the rest.
Select the correct class. Options are active, inactive and nothing else.

[
  {
    "compound": "Nc1nc(Nc2ccc(Cl)cc2)n(Cc2cccc(Br)c2)n1",
    "answer_label": "active"
  },
  {
    "compound": "CN1C(=O)N(C)C2SC(N/N=C/c3cccs3)=NC21 (stereo not drawn)",
    "answer_label": "inactive"
  },
  {
    "compound": "C=C1CCC2C3(C)COC(c4cc(F)cc(F)c4)OC3CCC2(C)C1C/C=C1/C(=O)OCC1O (stereo not drawn)",
    "answer_label": "active"
  }
]

Field: next compound
Data request: Any idea what this test logged for CN(C)c1cccc2c(S(=O)(=O)Nc3cccc(-c4csc(NC(=O)CCCCCN5CCN(c6cc7c(cc6F)C(=O)N(C6CCC(=O)NC6=O)C7=O)CC5)n4)c3)cccc12 (stereo not drawn) ?
Data returned: inactive

----------
Quick reference: growth of the listed items.
# Tested on: CAKI-1 renal
# procedure_text: NCI-60 one-dose screen, 48 h (100 = growth as untreated, 0 = no growth, -100 = all killed)
# test_conditions: 10 µM
The panel holds about 83,000 compounds, 20% with a hit somewhere; the sample as a whole holds those more often.
Form entry: value (%) — number only.

Data request: Give its growth value. Item: O=C(c1ccc(Cl)cc1)C1[C@H](c2ccc(Br)cc2)[C@@H](c2ccccc2)NC12C(=O)Nc1ccc(Cl)cc12 (stereo partly drawn)
Data returned: -92.7

Data request: May I ask what growth has been recorded for "N#Cc1ccc(-c2nn(-c3ccc(C(=O)O)cc3)cc2CNc2ccc(Oc3ccccc3)cc2)cc1" ?
Data returned: 59.7

Data request: Give the measured growth of "N#Cc1c(-c2ccc(F)cc2)nc(SCc2ccc(F)cc2)nc1N1CCOCC1" .
Data returned: 30.7

Data request: Fill in the blank: the reported growth of "CCCn1c(O)c(N=Nc2nc(-c3cc4ccccc4oc3=O)cs2)c2cc(Br)ccc21" is ____.
Data returned: 96.4

Data request: // growth lookup, key: "COc1ccc(CN2[C@H](C(=O)NCCCCCCC(=O)NO)Cc3c([nH]c4ccccc34)[C@H]2C2CC2)cc1"
Data returned: 4

----------
# Test system: IGROV1 ovarian
# procedure_text: NCI-60 one-dose screen, 48 h (100 = growth as untreated, 0 = no growth, -100 = all killed)
# test_conditions: 10 µM
Compounds without any hit were thinned out: in the full panel of roughly 83,000, 20% have a hit.
growth reference
Only the number, expressed in %, is required.

Data request: // growth lookup, key: "Cc1ccc(/C=C/C(=O)c2ccc(S(=O)(=O)NCCNc3nc(Nc4ccc(F)cc4)nc(N(C)C)n3)cc2)cc1"
Data returned: 52.1

Data request: Quick one: growth for "Cn1cc(-c2cc(N)n3nc(-c4c[nH]c5ccc(Br)cc45)cc3n2)c2cc(Br)cnc21" ?
Data returned: -21.6

Data request: Consider the compound "C=C1CC[C@H](C(=C)C)[C@H]2C=C(C)C(=O)C3=C(C(=O)[C@@](C)(O)C3)[C@H]12" and give its measured growth.
Data returned: -61.4

Data request: Given the entry "CCOC(=O)c1sc(N/N=C(\C)c2ccc3c(c2)Nc2ccccc2S3)nc1C" , report its measured growth.
Data returned: 39.6
